Provenance of the data: patent US20130004513A1

# % Inh3 per record follows
- test-system: Human CD4 on CD4+CD25+ regulatory T cells of healthy donors (human, UniProt P01730 26-458)
- experiment-summary: cell-based or functional assay
Numbers only here, please. The scale is %.

Worked examples follow.
HC master LC L98I (antibody, V domains shown) VH: EEQLVESGGGLVKPGGSLRLSCAASGFSFSDCRMYWLRQAPGKGLEWIGVISVKSENYGANYAESVRGRFTISRDDSKNTVYLQMNSLKTEDTAVYYCSASYYRYDVGAWFAYWGQGTLVTVSS VL: DIVMTQSPDSLAVSLGERATINCRASKSVSTSGYSYIYWYQQKPGQPPKLLIYLASILESGVPDRFSGSGSGTDFTLTISSLQAEDVAVYYCQHSREIPWTFGQGTKVEIKR
18.2
LC G33A HC R33K (antibody, V domains shown) VH: EEQLVESGGGLVKPGGSLRLSCAASGFSFSDCKMYWLRQAPGKGLEWIGVISVKSENYGANYAESVRGRFTISRDDSKNTVYLQMNSLKTEDTAVYYCSASYYRYDVGAWFAYWGQGTLVTVSS VL: DIVMTQSPDSLAVSLGERATINCRASKSVSTSAYSYIYWYQQKPGQPPKLLIYLASILESGVPDRFSGSGSGTDFTLTISSLQAEDVAVYYCQHSRELPWTFGQGTKVEIKR
9

Read the next record carefully.
Give me measured % Inh3, please, for this binder: LC master HC R33K (antibody, V domains shown) VH: EEQLVESGGGLVKPGGSLRLSCAASGFSFSDCKMYWLRQAPGKGLEWIGVISVKSENYGANYAESVRGRFTISRDDSKNTVYLQMNSLKTEDTAVYYCSASYYRYDVGAWFAYWGQGTLVTVSS VL: DIVMTQSPDSLAVSLGERATINCRASKSVSTSGYSYIYWYQQKPGQPPKLLIYLASILESGVPDRFSGSGSGTDFTLTISSLQAEDVAVYYCQHSRELPWTFGQGTKVEIKR
15
